Assay: qHTS assay to identify small molecule agonists of the constitutive androstane receptor (CAR) signaling pathway - cell viability counter screen (AID 1224836); further: nearly all actives have a fitted effect of over 45% in size
Settings: HepG2-CYP2B6-hCAR viability, CellTiter-Fluor, 23 h, PK11195 added to every well; series mostly up to 92.4 µM
Text: U.S. Tox21 Program National Center for Advancing Translational Sciences [NCATS] NIH Chemical Genomics Center [NCGC] U.S. Environmental Protection Agency [EPA] National Institutes of Environmental Health Sciences [NIEHS] National Toxicology Program [NTP] U.S. Food and Drug Administration [FDA] […] Tox21 Assay Protocol Summary: A double-stable (hCAR and CYP2B6-2.2kb) transfected cell line, derived from human hepatoma (HepG2) cells, was utilized for the duration of the quantitative high-throughput screens. […]
Records with an inconclusive call do not appear. Active and inactive are the calls of the source. The call rests on the fitted dose curve; in most records, active means well fitted cell-killing curve with a large enough effect in the repeat runs; inconclusive means weak or mixed curves, or effect the other way; inactive means flat fitted curve, though single readings scatter.
Outcomes: True = active, False = inactive

[[record]]
molecule = "C=CC(C)(C)O"
classification = "False"

[[record]]
molecule = "CN1CCN(c2ccccc2/C=C2\\SCCN(c3ccc(Cl)c(Cl)c3)C2=O)CC1"
classification = "True"

[[record]]
molecule = "[Cl][Sc]([Cl])[Cl]"
classification = "False"

[[record]]
molecule = "CO[Si](OC)(c1ccccc1)c1ccccc1"
classification = "False"

[[record]]
molecule = "CN1CCN(C)CC1"
classification = "False"

[[record]]
molecule = "Cn1c(=O)[nH]c2ncn(C)c2c1=O"
classification = "False"

[[record]]
molecule = "O=C(N[C@H](CO)[C@H](O)c1ccc([N+](=O)[O-])cc1)C(Cl)Cl"
classification = "False"

[[record]]
molecule = "O=C(CCN1CCC(c2ccccc2)C1)c1ccc2c(c1)OCCO2 (stereo not given)"
classification = "False"

[[record]]
molecule = "S=C1NC=NC2N=CNC12 (stereo not given)"
classification = "False"

[[record]]
molecule = "CCc1cccc(CC)c1"
classification = "False"

[[record]]
molecule = "O=[N+]([O-])c1ccc(CO)cc1"
classification = "False"

[[record]]
molecule = "O=C1CCC/C=C\\CCCCCCCCCC1"
classification = "False"

[[record]]
molecule = "C=C1C(CCl)(CCl)C2(Cl)C(Cl)C(Cl)C1(Cl)C2(Cl)Cl (stereo not given)"
classification = "False"

[[record]]
molecule = "C=CC(=O)O[C@H]1C[C@@H]2CC[C@@]1(C)C2(C)C"
classification = "False"

[[record]]
molecule = "C/C=C/C(=O)OCC(C)C"
classification = "False"

[[record]]
molecule = "CC(=O)[C@]1(O)Cc2c(O)c3c(c(O)c2[C@@H](O[C@H]2C[C@H](N)[C@H](O)[C@H](C)O2)C1)C(=O)c1ccccc1C3=O"
classification = "True"

[[record]]
molecule = "CCC(=O)OC/C=C(\\C)CCC=C(C)C"
classification = "False"

[[record]]
molecule = "CCN(CC)c1ccc(C=O)cc1"
classification = "False"

[[record]]
molecule = "Cc1cccc2c1ccc1ccccc12"
classification = "False"

[[record]]
molecule = "O=C(Nc1ccccc1)c1cc(Cl)ccc1O"
classification = "True"

[[record]]
molecule = "CC(Cc1ccc(O)c(O)c1)C(C)Cc1ccc(O)c(O)c1 (stereo not given)"
classification = "False"

[[record]]
molecule = "COc1cc([C@@H]2c3cc4c(cc3[C@@H](O[C@@H]3O[C@@H]5CO[C@@H](C)O[C@H]5[C@H](O)[C@H]3O)[C@H]3COC(=O)[C@H]23)OCO4)cc(OC)c1O"
classification = "False"

[[record]]
molecule = "CCN(CCC#N)c1ccc(N=Nc2ccc([N+](=O)[O-])cc2)cc1"
classification = "False"

[[record]]
molecule = "Oc1ccc(C2(c3ccc(O)c(C4CCCCC4)c3)CCCCC2)cc1C1CCCCC1"
classification = "True"

[[record]]
molecule = "CCCCCCCCCCCCCCCCCCNC(=O)OC1CCN(C(=O)OC[C@H](COC(=O)N(Cc2cccc[n+]2CC)C(=O)c2ccccc2OC)OC)CC1"
classification = "False"

[[record]]
molecule = "C=CCc1cc(S(=O)(=O)c2ccc(O)c(CC=C)c2)ccc1O"
classification = "False"

[[record]]
molecule = "Nc1ccc(F)c([N+](=O)[O-])c1"
classification = "False"

[[record]]
molecule = "C=C(C)CCO"
classification = "False"

[[record]]
molecule = "O[Si](c1ccccc1)(c1ccccc1)c1ccccc1"
classification = "False"

[[record]]
molecule = "CC1=C(/C=C/C(C)=C/C=C/C(C)=C\\C(=O)O)C(C)(C)CCC1"
classification = "False"

[[record]]
molecule = "O=C1OCc2ccccc21"
classification = "False"

[[record]]
molecule = "CN1CCN(CCCN2c3ccccc3Sc3ccc(C(F)(F)F)cc32)CC1"
classification = "False"

[[record]]
molecule = "CC(CC(C)(C)C)CC(C)(C)CC(C)(C)C (stereo not given)"
classification = "False"

[[record]]
molecule = "CC(C)=CCC[C@H](C)CC=O"
classification = "False"

[[record]]
molecule = "Nc1cc([N+](=O)[O-])ccc1Cl"
classification = "False"

[[record]]
molecule = "Nc1ccc(Cl)c([N+](=O)[O-])c1"
classification = "False"

[[record]]
molecule = "O=C1CCC(=O)N1"
classification = "False"

[[record]]
molecule = "C/C=C/C(=O)C1=C(C)C=CCC1(C)C"
classification = "False"

[[record]]
molecule = "CSc1ccc(O)cc1C"
classification = "False"

[[record]]
molecule = "COCCC(=O)OC"
classification = "False"

[[record]]
molecule = "CC(=O)CC(N)=O"
classification = "False"

[[record]]
molecule = "CCCCCN=C(N)N/N=C/c1c[nH]c2ccc(OC)cc12"
classification = "True"

[[record]]
molecule = "CC1=CC[C@@H](C(C)(C)O)CC1"
classification = "False"

[[record]]
molecule = "Nc1c(Br)cc([N+](=O)[O-])cc1Br"
classification = "False"

[[record]]
molecule = "c1ccc(-c2ccccc2-c2ccccc2)cc1"
classification = "False"

[[record]]
molecule = "CCN(CC)c1ccc(C=O)c(O)c1"
classification = "False"

[[record]]
molecule = "CC/C=C(\\C)C=O"
classification = "False"

[[record]]
molecule = "Nc1ccc(Oc2cccc(Oc3ccc(N)cc3)c2)cc1"
classification = "False"

[[record]]
molecule = "C1=CCCC1"
classification = "False"

[[record]]
molecule = "CC(C)(C)c1ccc(OC2CCCCC2O)cc1 (stereo not given)"
classification = "False"

